# targetEntity: DNA topoisomerase 2-alpha (Homo sapiens) (UniProt P11388)
# Sequence (P11388 whole entry): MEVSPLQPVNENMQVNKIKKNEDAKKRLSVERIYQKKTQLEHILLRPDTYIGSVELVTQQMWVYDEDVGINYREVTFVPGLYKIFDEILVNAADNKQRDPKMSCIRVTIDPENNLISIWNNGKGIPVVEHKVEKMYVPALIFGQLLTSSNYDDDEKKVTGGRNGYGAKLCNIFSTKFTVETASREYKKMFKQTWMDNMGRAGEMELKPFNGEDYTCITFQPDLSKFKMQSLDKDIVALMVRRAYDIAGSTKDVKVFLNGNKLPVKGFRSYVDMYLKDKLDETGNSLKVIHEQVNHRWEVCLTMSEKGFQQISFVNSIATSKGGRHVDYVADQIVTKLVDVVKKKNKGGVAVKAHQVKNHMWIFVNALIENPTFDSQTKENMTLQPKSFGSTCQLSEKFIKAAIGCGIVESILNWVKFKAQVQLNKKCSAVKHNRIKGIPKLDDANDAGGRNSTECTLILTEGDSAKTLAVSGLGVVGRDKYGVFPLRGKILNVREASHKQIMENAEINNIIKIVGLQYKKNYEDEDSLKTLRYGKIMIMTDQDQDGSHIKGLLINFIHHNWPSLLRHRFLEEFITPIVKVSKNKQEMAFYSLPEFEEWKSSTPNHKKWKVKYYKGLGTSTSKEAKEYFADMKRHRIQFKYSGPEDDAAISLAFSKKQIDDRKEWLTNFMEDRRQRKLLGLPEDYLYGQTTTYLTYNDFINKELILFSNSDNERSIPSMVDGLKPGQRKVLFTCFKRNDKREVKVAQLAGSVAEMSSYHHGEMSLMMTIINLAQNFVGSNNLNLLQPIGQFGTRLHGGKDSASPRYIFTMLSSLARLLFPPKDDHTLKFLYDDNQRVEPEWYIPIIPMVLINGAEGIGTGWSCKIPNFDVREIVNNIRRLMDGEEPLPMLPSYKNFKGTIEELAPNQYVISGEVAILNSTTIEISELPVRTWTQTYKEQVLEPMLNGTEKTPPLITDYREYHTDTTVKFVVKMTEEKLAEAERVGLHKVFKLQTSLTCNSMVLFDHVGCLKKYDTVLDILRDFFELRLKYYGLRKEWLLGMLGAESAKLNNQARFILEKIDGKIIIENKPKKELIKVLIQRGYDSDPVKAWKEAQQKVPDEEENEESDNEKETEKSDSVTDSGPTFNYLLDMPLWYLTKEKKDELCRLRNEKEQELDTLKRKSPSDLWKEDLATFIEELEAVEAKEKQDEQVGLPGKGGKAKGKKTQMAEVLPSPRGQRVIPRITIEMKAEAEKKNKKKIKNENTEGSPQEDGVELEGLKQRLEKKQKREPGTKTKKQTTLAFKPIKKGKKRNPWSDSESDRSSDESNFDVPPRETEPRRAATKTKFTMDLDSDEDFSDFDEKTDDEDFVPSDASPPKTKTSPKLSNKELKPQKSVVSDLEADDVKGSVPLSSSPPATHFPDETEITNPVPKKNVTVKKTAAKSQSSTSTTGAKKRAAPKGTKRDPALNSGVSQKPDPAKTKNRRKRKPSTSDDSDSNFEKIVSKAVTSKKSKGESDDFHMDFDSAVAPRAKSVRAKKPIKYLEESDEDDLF
# protocolSummary: Inhibition of topoisomerase 2 (unknown origin) assessed as reduction in decatenation of kinetoplast DNA at 100 uM incubated for 30 mins by ethidium bromide staining based gel electrophoresis method
Active and inactive are the calls of the source. The calls are words filed in the database; no cut-off is given here.
Field 'call' accepts active, inactive

Request: What classification did "O=C(/C=C/c1ccc2c(c1)OCO2)N1CCN(CCN2C(=O)c3cccc4cccc(c34)C2=O)CC1" end up with in this test?
Result: active

Request: What classification did "O=C(/C=C/c1ccccc1)N1CCN(CCN2C(=O)c3cccc4cccc(c34)C2=O)CC1" end up with in this test?
Result: inactive

Request: What classification did "O=C(CN1CCN(CCN2C(=O)c3cccc4cccc(c34)C2=O)CC1)Nc1ccc2ncsc2c1" end up with in this test?
Result: active

Request: What classification did CN(C)CCN1C(=O)c2cccc3cc(N)cc(c23)C1=O [AMONAFIDE] end up with in this test?
Result: inactive

Request: What classification did "Cc1nc2ccc(NC(=O)CN3CCN(CCN4C(=O)c5cccc6cccc(c56)C4=O)CC3)cc2s1" end up with in this test?
Result: active

###

# System: A549
# protocolSummary: Cytotoxicity against human A549 cells assessed as reduction in cell viability after 48 hrs by MTT assay
# Format: functional, cell-based
# particulars: A549, 48 h
endpointName: pIC50
The meaning of pIC50 here: minus log10 of the concentration in molar units.

The compound identified as "O=C(CN1CCN(CCN2C(=O)c3cccc4cccc(c34)C2=O)CC1)Nc1nc2ccccc2s1" registered its pIC50 at 4.83

The compound identified as "COc1ccc2nc(NC(=O)CN3CCN(CCN4C(=O)c5cccc6cccc(c56)C4=O)CC3)sc2c1" registered its pIC50 at 5.32

The compound identified as "O=C(/C=C/c1cc(F)c(F)c(F)c1)N1CCN(CCN2C(=O)c3cccc4cccc(c34)C2=O)CC1" registered its pIC50 at 4.83

###

What pIC50 was measured for each of the following?
# Tested on: HT-29
# protocolSummary: Cytotoxicity against human HT-29 cells assessed as reduction in cell viability after 48 hrs by MTT assay
# Type: functional, cell-based
# particulars: HT-29, 48 h
The meaning of pIC50 here: minus log10 of the concentration in molar units.

The compound identified as "Cc1nc2ccc(NC(=O)CN3CCN(CCN4C(=O)c5cccc6cccc(c56)C4=O)CC3)cc2s1" registered its pIC50 at 5.46

The compound identified as "O=C(/C=C/c1ccccc1)N1CCN(CCN2C(=O)c3cccc4cccc(c34)C2=O)CC1" registered its pIC50 at 4.79

The compound identified as "CN(C)c1ccc(/C=C/C(=O)N2CCN(CCN3C(=O)c4cccc5cccc(c45)C3=O)CC2)cc1" registered its pIC50 at 5.40

The compound identified as CN(C)CCN1C(=O)c2cccc3cc(N)cc(c23)C1=O [AMONAFIDE] registered its pIC50 at 5.26

The compound identified as "O=C(/C=C/c1cc(F)ccc1F)N1CCN(CCN2C(=O)c3cccc4cccc(c34)C2=O)CC1" registered its pIC50 at 5.38

The compound identified as "O=C(CN1CCN(CCN2C(=O)c3cccc4cccc(c34)C2=O)CC1)Nc1ccc2ncsc2c1" registered its pIC50 at 5.43

The compound identified as "O=C(/C=C/c1ccc(F)cc1F)N1CCN(CCN2C(=O)c3cccc4cccc(c34)C2=O)CC1" registered its pIC50 at 4.76

The compound identified as "COc1ccc2nc(NC(=O)CN3CCN(CCN4C(=O)c5cccc6cccc(c56)C4=O)CC3)sc2c1" registered its pIC50 at 5.37

The compound identified as "O=C(/C=C/c1ccc(F)c(F)c1)N1CCN(CCN2C(=O)c3cccc4cccc(c34)C2=O)CC1" registered its pIC50 at 4.87

The compound identified as "O=C(/C=C/c1cc(F)cc(F)c1)N1CCN(CCN2C(=O)c3cccc4cccc(c34)C2=O)CC1" registered its pIC50 at 5.08

The compound identified as "O=C(/C=C/c1cccc(C(F)(F)F)c1)N1CCN(CCN2C(=O)c3cccc4cccc(c34)C2=O)CC1" registered its pIC50 at 4.77

The compound identified as "O=C(CN1CCN(CCN2C(=O)c3cccc4cccc(c34)C2=O)CC1)Nc1nc2ccccc2s1" registered its pIC50 at 4.96

The compound identified as "COc1cccc(/C=C/C(=O)N2CCN(CCN3C(=O)c4cccc5cccc(c45)C3=O)CC2)c1" registered its pIC50 at 4.81

The compound identified as "O=C(/C=C/c1ccc2c(c1)OCO2)N1CCN(CCN2C(=O)c3cccc4cccc(c34)C2=O)CC1" registered its pIC50 at 5.42

The compound identified as "COc1ccc(/C=C/C(=O)N2CCN(CCN3C(=O)c4cccc5cccc(c45)C3=O)CC2)c(OC)c1" registered its pIC50 at 4.62

The compound identified as "O=C(/C=C/c1cc(F)c(F)c(F)c1)N1CCN(CCN2C(=O)c3cccc4cccc(c34)C2=O)CC1" registered its pIC50 at 4.86

The compound identified as "COc1ccc(/C=C/C(=O)N2CCN(CCN3C(=O)c4cccc5cccc(c45)C3=O)CC2)cc1O" registered its pIC50 at 4.99

###

# Test system: Calf thymus DNA
# protocolSummary: Binding affinity to calf thymus DNA assessed as change in viscosity at 15 uM by ethidium bromide staining-based method
# Type: nucleic-acid assay
# particulars: Bos taurus
The source made the active and inactive calls. The rule behind the calls is not given here.
Field 'call' accepts TRUE for active, FALSE for inactive

Request: What classification did "Cc1nc2ccc(NC(=O)CN3CCN(CCN4C(=O)c5cccc6cccc(c56)C4=O)CC3)cc2s1" end up with in this test?
Result: TRUE

Request: What classification did "O=C(/C=C/c1ccccc1)N1CCN(CCN2C(=O)c3cccc4cccc(c34)C2=O)CC1" end up with in this test?
Result: FALSE

Request: What classification did "O=C(CN1CCN(CCN2C(=O)c3cccc4cccc(c34)C2=O)CC1)Nc1ccc2ncsc2c1" end up with in this test?
Result: TRUE

Request: What classification did "O=C(/C=C/c1ccc2c(c1)OCO2)N1CCN(CCN2C(=O)c3cccc4cccc(c34)C2=O)CC1" end up with in this test?
Result: TRUE

###

# System: Calf thymus DNA
# protocolSummary: Binding affinity to calf thymus DNA assessed as hyperchromicity at 15 to 30 uM by CD spectroscopic method
# Format: nucleic-acid assay
# particulars: Bos taurus
Activity calls are given as the source filed them. No cut-off for these calls is given here.
endpointName: Activity

smilesEntry | recordedResult
O=C(/C=C/c1ccccc1)N1CCN(CCN2C(=O)c3cccc4cccc(c34)C2=O)CC1 | Active
COc1cccc(/C=C/C(=O)N2CCN(CCN3C(=O)c4cccc5cccc(c45)C3=O)CC2)c1 | Active
O=C(CN1CCN(CCN2C(=O)c3cccc4cccc(c34)C2=O)CC1)Nc1ccc2ncsc2c1 | Active
Cc1nc2ccc(NC(=O)CN3CCN(CCN4C(=O)c5cccc6cccc(c56)C4=O)CC3)cc2s1 | Active
